// provenance: patent US5124350A

# Tgt: LTB4 Receptor (Homo sapiens, UniProt Q15722)
# Construct: Neutrophils were purified from venous blood of normal human donors; endogenous in cells; host or cells: neutrophils from venous blood of normal human donors
# Sequence (Q15722 whole entry): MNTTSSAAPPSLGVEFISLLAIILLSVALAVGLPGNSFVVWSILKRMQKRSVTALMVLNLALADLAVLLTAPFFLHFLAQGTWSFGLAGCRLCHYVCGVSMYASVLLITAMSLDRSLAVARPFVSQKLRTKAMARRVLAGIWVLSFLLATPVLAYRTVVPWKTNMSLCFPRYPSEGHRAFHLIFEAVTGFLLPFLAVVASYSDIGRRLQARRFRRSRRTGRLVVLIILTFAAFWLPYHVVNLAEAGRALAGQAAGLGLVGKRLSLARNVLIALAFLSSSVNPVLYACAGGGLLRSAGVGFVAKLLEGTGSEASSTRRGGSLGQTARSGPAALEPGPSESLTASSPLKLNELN
# Assay Info: LTB4 Receptor Binding Assay ((3H) LTB4, human neutrophils)
# Setup Conditions: relative to the compound of Example 1 (b), defined as 1.0
Readout Name: Relative Potency, LTB4 Receptor Binding

Please review the following examples before continuing.
Molecule: C=CCc1c(OCCCOc2ccc3c(c2CCC)OC(C(=O)O)CC3)ccc(C(=O)N2CCCC2)c1OC (centres unmarked)
Numeric Value: 1.0

Molecule: CCCc1c(OCCCOc2ccc(C(=O)N3CCCC3)c(OC)c2CCC)cccc1OCC(=O)O
Numeric Value: 0.04

1 = C=CCc1c(OCCCOc2ccc3c(c2CCC)OC(CCC(=O)O)CC3)ccc(C(=O)NC)c1OC (centres unmarked)
2 = C=CCc1c(OCCCOc2cccc(OCC(=O)O)c2CCC)ccc(C(=O)N2CCCC2)c1OC
3 = CCCc1c(OCCCOc2ccc(C(=O)NC)c(OC)c2CCC)ccc2c1OC(C(=O)O)CC2 (centres unmarked)
Input: Write the entries in order, lowest recorded Relative Potency, LTB4 Receptor Binding first. To answer, arrange all of the labels according to the requested order.
Output: 2, 3, 1
